The reported measurements were obtained from patent US20090082400A1.

# Assay Procedure: Pharmacokinetic parameters of oral tacrolimus in the presence of Q-Captisol in healthy human volunteers
# Format: in vivo
# Settings: male, plasma, Period 1: single oral dose 1 mg tacrolimus alone
Measured Quantity: AUC (ng·h/mL)

| Smiles Structure | Measured Quantity | Unit String | Observed Measurement |
| --- | --- | --- | --- |
| C=CC[C@@H]1/C=C(\C)C[C@H](C)C[C@H](OC)[C@H]2O[C@@](O)(C(=O)C(=O)N3CCCC[C@H]3C(=O)O[C@H](/C(C)=C/[C@@H]3CC[C@@H](O)[C@H](OC)C3)[C@H](C)[C@@H](O)CC1=O)[C@H](C)C[C@@H]2OC | AUC | ng·h/mL | 48.8 |

###

# Assay Procedure: Pharmacokinetic parameters of i.v. tacrolimus in the presence of Q-Captisol in male Lewis rats
# Type: in vivo
# Settings: male, Lewis, rat, whole blood, iv, 1 mg/kg, tacrolimus 1 mg/kg i.v., Q-Captisol Dose 300 mg/kg i.p. 30 min before
Measured Quantity: half-life

| Smiles Structure | Measured Quantity | Observed Measurement |
| --- | --- | --- |
| C=CC[C@@H]1/C=C(\C)C[C@H](C)C[C@H](OC)[C@H]2O[C@@](O)(C(=O)C(=O)N3CCCC[C@H]3C(=O)O[C@H](/C(C)=C/[C@@H]3CC[C@@H](O)[C@H](OC)C3)[C@H](C)[C@@H](O)CC1=O)[C@H](C)C[C@@H]2OC | half-life | 462 min |

###

# Assay Procedure: Pharmacokinetic parameters of oral tacrolimus in the presence of Q-Captisol in healthy human volunteers
# Format: in vivo
# Settings: male, plasma, Period 3: 1 mg oral tacrolimus after single IV infusion of 100 mg Q-Captisol

| Molecule | Tmax / h |
| --- | --- |
| C=CC[C@@H]1/C=C(\C)C[C@H](C)C[C@H](OC)[C@H]2O[C@@](O)(C(=O)C(=O)N3CCCC[C@H]3C(=O)O[C@H](/C(C)=C/[C@@H]3CC[C@@H](O)[C@H](OC)C3)[C@H](C)[C@@H](O)CC1=O)[C@H](C)C[C@@H]2OC [tacrolimus] | 1.55 |

###

# Assay Procedure: Pharmacokinetic parameters of i.v. tacrolimus in the presence of Q-Captisol in male Lewis rats
# Type: in vivo
# Settings: male, Lewis, rat, whole blood, iv, 1 mg/kg, tacrolimus 1 mg/kg i.v., Q-Captisol Dose 300 mg/kg i.p. 30 min before

| Smiles Structure | AUC |
| --- | --- |
| C=CC[C@@H]1/C=C(\C)C[C@H](C)C[C@H](OC)[C@H]2O[C@@](O)(C(=O)C(=O)N3CCCC[C@H]3C(=O)O[C@H](/C(C)=C/[C@@H]3CC[C@@H](O)[C@H](OC)C3)[C@H](C)[C@@H](O)CC1=O)[C@H](C)C[C@@H]2OC | 1240 ng·h/mL |

###

# Assay Procedure: Pharmacokinetic parameters of oral tacrolimus in the presence of Q-Captisol in healthy human volunteers
# Type: in vivo
# Settings: male, plasma, Period 1: single oral dose 1 mg tacrolimus alone

| Smiles Structure | Cmax (ng/mL) |
| --- | --- |
| C=CC[C@@H]1/C=C(\C)C[C@H](C)C[C@H](OC)[C@H]2O[C@@](O)(C(=O)C(=O)N3CCCC[C@H]3C(=O)O[C@H](/C(C)=C/[C@@H]3CC[C@@H](O)[C@H](OC)C3)[C@H](C)[C@@H](O)CC1=O)[C@H](C)C[C@@H]2OC | 5.8 |

###

# Assay Procedure: Pharmacokinetic parameters of i.v. tacrolimus in the presence of Q-Captisol in male Lewis rats
# Format: in vivo
# Settings: male, Lewis, rat, whole blood, iv, 1 mg/kg, tacrolimus 1 mg/kg i.v., Q-Captisol Dose 25 mg/kg i.p. 30 min before
Measured Quantity: Cmax (ng/mL)

| Smiles Structure | Observed Measurement |
| --- | --- |
| C=CC[C@@H]1/C=C(\C)C[C@H](C)C[C@H](OC)[C@H]2O[C@@](O)(C(=O)C(=O)N3CCCC[C@H]3C(=O)O[C@H](/C(C)=C/[C@@H]3CC[C@@H](O)[C@H](OC)C3)[C@H](C)[C@@H](O)CC1=O)[C@H](C)C[C@@H]2OC | 426 |

###

# Assay Procedure: Pharmacokinetic parameters of oral tacrolimus in the presence of Q-Captisol in healthy human volunteers
# Format: in vivo
# Settings: male, plasma, Period 3: 1 mg oral tacrolimus after single IV infusion of 100 mg Q-Captisol

| Smiles Structure | AUC |
| --- | --- |
| C=CC[C@@H]1/C=C(\C)C[C@H](C)C[C@H](OC)[C@H]2O[C@@](O)(C(=O)C(=O)N3CCCC[C@H]3C(=O)O[C@H](/C(C)=C/[C@@H]3CC[C@@H](O)[C@H](OC)C3)[C@H](C)[C@@H](O)CC1=O)[C@H](C)C[C@@H]2OC | 56.3 ng·h/mL |

###

# Assay Procedure: Pharmacokinetic parameters of i.v. tacrolimus in the presence of Q-Captisol in male Lewis rats
# Assay type: in vivo
# Settings: male, Lewis, rat, whole blood, iv, 1 mg/kg, tacrolimus 1 mg/kg i.v., Q-Captisol Dose 25 mg/kg i.p. 30 min before
Measured Quantity: AUC

| Smiles Structure | Measured Quantity | Observed Measurement |
| --- | --- | --- |
| C=CC[C@@H]1/C=C(\C)C[C@H](C)C[C@H](OC)[C@H]2O[C@@](O)(C(=O)C(=O)N3CCCC[C@H]3C(=O)O[C@H](/C(C)=C/[C@@H]3CC[C@@H](O)[C@H](OC)C3)[C@H](C)[C@@H](O)CC1=O)[C@H](C)C[C@@H]2OC | AUC | 0.635 µg·h/mL |

###

# Assay Procedure: Pharmacokinetic parameters of i.v. tacrolimus in the presence of Q-Captisol in male Lewis rats
# Type: in vivo
# Settings: male, Lewis, rat, whole blood, iv, 1 mg/kg, tacrolimus 1 mg/kg i.v., Q-Captisol Dose 25 mg/kg i.p. 30 min before

| Molecule | Unit String | clearance |
| --- | --- | --- |
| C=CC[C@@H]1/C=C(\C)C[C@H](C)C[C@H](OC)[C@H]2O[C@@](O)(C(=O)C(=O)N3CCCC[C@H]3C(=O)O[C@H](/C(C)=C/[C@@H]3CC[C@@H](O)[C@H](OC)C3)[C@H](C)[C@@H](O)CC1=O)[C@H](C)C[C@@H]2OC [tacrolimus] | mL/min/kg | 23.3 |

###

# Assay Procedure: Pharmacokinetic parameters of oral tacrolimus in the presence of Q-Captisol in healthy human volunteers
# Assay type: in vivo
# Settings: male, plasma, Period 2: 1 mg oral tacrolimus + Q-Captisol po 100 mg three times per day Days 12-14
# Procedure: Tacrolimus-quercetin pharmacokinetic interactions are evaluated in N=15 healthy male subjects in an open-label, three-way crossover study of i.v. or oral quercetin-sulfobutylether-7-β-cyclodextrin (Q-Captisol) administered in combination with oral tacrolimus. […] The tacrolimus concentrations in plasma are determined using validated assay methods via an LC/MS/MS analytical technique. […]
Measured Quantity: Cmax

| Smiles Structure | Observed Measurement |
| --- | --- |
| C=CC[C@@H]1/C=C(\C)C[C@H](C)C[C@H](OC)[C@H]2O[C@@](O)(C(=O)C(=O)N3CCCC[C@H]3C(=O)O[C@H](/C(C)=C/[C@@H]3CC[C@@H](O)[C@H](OC)C3)[C@H](C)[C@@H](O)CC1=O)[C@H](C)C[C@@H]2OC | 6.5 ng/mL |

###

# Assay Procedure: Pharmacokinetic parameters of i.v. tacrolimus in the presence of Q-Captisol in male Lewis rats
# Format: in vivo
# Settings: male, Lewis, rat, whole blood, iv, 1 mg/kg, tacrolimus 1 mg/kg i.v., Q-Captisol Dose 150 mg/kg i.p. 30 min before

| Molecule | Unit String | half-life |
| --- | --- | --- |
| C=CC[C@@H]1/C=C(\C)C[C@H](C)C[C@H](OC)[C@H]2O[C@@](O)(C(=O)C(=O)N3CCCC[C@H]3C(=O)O[C@H](/C(C)=C/[C@@H]3CC[C@@H](O)[C@H](OC)C3)[C@H](C)[C@@H](O)CC1=O)[C@H](C)C[C@@H]2OC [tacrolimus] | h | 8.1 |
